Just for reference, patent US12122778B2 is where these values come from.

- measured-target: PKR(wt) (Homo sapiens, UniProt P30613)
- Sequence (P30613 whole entry): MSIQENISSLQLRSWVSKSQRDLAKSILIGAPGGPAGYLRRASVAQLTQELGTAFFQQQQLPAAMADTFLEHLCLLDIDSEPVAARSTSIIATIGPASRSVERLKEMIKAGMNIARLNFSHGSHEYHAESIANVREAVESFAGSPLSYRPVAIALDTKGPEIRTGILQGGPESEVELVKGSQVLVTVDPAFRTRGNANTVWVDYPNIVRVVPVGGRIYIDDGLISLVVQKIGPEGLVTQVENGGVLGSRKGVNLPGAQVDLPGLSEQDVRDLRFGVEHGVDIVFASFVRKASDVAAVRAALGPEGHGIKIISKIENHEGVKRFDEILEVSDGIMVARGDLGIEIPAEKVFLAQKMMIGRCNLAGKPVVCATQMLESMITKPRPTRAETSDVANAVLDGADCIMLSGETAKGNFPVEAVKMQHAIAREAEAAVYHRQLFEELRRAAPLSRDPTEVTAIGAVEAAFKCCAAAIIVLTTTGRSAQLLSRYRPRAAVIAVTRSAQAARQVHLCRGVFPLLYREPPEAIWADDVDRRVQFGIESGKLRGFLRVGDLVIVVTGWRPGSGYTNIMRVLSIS
- test-method-notes: Luminescence Biochemical Assay (Kinase Glo Plus), wild type PKR
- test-conditions: without FBP, read-out: AC50 LUM KGP woFBP AC50 μM gmean
- Experimental: In some embodiments, a PKR Activating Compound can have: (1) an AC50 value of less than 0.1 μM (e.g., compounds with AC50 values of “+++” in Table 13), 0.1-1.0 μM (e.g., compounds with AC50 values of “++” in Table 13), or 1.01-40 μM (e.g., compounds with AC50 values of “+” in Table 13); (2) a MAX % Fold of 75%-250%, 250-500%, or 75%-500%; and/or (3) a % Fold@1.54 μM of 75%-250%, 250-500%, or 75%-500%. […]
quantity-measured: AC50

Consider the following illustrative entries.
INSERT INTO results (molecule, quantity_measured, recorded_result) VALUES
  ('O=C(OCC1CCOC1)N1CC2=C(C1)CN(S(=O)(=O)c1ccc(OC(F)F)cc1)C2 (stereo not shown)', 'AC50', '1 to 40 µM'),
  ('O=C(OCc1cccnc1)N1CC2=C(C1)CN(S(=O)(=O)c1ccc3occc3c1)C2', 'AC50', '0.1 to 1 µM'),
  ('Cc1cc(COC(=O)N2CC3=C(C2)CN(S(=O)(=O)c2ccc(OC(F)F)cc2)C3)nn1C', 'AC50', '0.1 to 1 µM'),
  ('O=C(NCc1nccs1)N1CC2=C(C1)CN(S(=O)(=O)c1ccc3ncsc3c1)C2', 'AC50', '0.1 to 1 µM'),
  ('CN(C)CCC(=O)N1CC2=C(C1)CN(S(=O)(=O)c1ccc3occc3c1)C2', 'AC50', '1 to 40 µM');

-- ask Lab note: need AC50 for CN1CCOc2ccc([C@H](O)C(=O)N3CC4=C(C3)CN(S(=O)(=O)c3ccc(OC(F)F)cc3)C4)cc21 (single isomer, unassigned) on PKR(wt) (Homo sapiens, UniProt P30613), anyone have it?
-- reply ≤ 0.1 µM

-- ask Lab note: need AC50 for O=C([C@H](O)c1ccccc1)N1CC2=C(C1)CN(S(=O)(=O)c1ccc(F)cc1F)C2 on PKR(wt) (Homo sapiens, UniProt P30613), anyone have it?
-- reply ≤ 0.1 µM

----------
Here, each record is paired with measured AC50 data.
- measured-target: PKR(R510Q) (Homo sapiens, UniProt P30613, R510Q)
- Sequence (P30613 whole entry R510Q): as the sequence (P30613 whole entry) above, with R510Q counted along it
- test-method-notes: Luminescence Biochemical Assay (Kinase Glo Plus), PKR R510Q mutant
- test-conditions: without FBP, read-out: AC50 LUM KGP woFBP AC50 μM gmean

INSERT INTO assay_data (compound, recorded_result) VALUES
  ('Cc1ccc(S(=O)(=O)N2CC3=C(CN(C(=O)[C@H](O)c4ccccc4)C3)C2)cc1F', '0.1 to 1 µM');

-- ask # input compound: O=C(Cc1cnccn1)N1CC2=C(C1)CN(S(=O)(=O)c1ccc(OC(F)F)cc1)C2 ; wanted: its AC50
-- reply 1 to 40 µM

-- ask # input compound: O=C(NCc1ccc(F)cc1)N1CC2=C(C1)CN(S(=O)(=O)c1cccc3cnccc13)C2 ; wanted: its AC50
-- reply 1 to 40 µM

-- ask # input compound: O=C(C(F)c1ccccc1)N1CC2=C(C1)CN(S(=O)(=O)c1ccc(OC(F)F)cc1)C2 (stereo not shown) ; wanted: its AC50
-- reply ≤ 0.1 µM
